Each entry below carries its reported IC50.
Target: ATP-dependent translocase ABCB1 (Homo sapiens)
Sequence (P08183 whole entry): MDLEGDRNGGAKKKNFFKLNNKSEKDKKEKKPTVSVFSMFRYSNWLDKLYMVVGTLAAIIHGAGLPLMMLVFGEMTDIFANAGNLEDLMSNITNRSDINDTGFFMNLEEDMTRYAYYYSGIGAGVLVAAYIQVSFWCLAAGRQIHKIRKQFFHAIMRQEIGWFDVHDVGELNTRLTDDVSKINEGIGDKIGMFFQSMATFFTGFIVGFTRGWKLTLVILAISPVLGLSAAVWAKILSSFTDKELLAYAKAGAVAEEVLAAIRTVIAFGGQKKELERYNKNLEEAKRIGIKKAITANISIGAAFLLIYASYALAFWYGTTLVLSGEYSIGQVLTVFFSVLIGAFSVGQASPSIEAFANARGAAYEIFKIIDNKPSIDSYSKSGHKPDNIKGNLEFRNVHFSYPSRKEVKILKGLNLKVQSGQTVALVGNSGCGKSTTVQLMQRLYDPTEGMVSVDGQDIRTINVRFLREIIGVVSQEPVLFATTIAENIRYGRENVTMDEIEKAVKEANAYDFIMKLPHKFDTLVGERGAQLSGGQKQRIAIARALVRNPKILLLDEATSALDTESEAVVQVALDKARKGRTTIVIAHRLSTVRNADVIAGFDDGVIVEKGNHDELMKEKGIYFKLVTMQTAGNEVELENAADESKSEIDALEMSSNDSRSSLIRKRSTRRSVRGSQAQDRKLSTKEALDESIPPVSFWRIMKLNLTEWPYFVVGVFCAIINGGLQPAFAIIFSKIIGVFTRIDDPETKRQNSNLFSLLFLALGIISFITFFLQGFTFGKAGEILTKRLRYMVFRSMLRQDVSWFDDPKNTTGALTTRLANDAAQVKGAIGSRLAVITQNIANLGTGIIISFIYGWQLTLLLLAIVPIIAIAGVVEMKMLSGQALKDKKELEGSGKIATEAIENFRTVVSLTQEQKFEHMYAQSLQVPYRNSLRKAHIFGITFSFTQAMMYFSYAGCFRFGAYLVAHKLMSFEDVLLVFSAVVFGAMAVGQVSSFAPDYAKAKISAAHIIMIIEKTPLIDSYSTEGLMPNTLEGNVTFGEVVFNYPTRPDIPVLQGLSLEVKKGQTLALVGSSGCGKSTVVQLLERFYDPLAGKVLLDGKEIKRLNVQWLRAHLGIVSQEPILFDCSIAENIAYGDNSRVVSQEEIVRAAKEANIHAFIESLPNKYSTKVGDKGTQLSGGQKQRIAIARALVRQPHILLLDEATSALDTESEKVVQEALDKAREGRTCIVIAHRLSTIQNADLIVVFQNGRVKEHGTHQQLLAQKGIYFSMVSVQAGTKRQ
Test: TP_TRANSPORTER: inhibition of Daunorubicin transepithelial transport (basal to apical) (Daunorubicin: 0.035 uM) in MDR1-expressing LLC-PK1 cells
Type: functional, cell-based

compound | reading_unit | IC50
CCCCc1oc2ccccc2c1C(=O)c1cc(I)c(OCCNCC)c(I)c1 | µM | 15.4
CN1CCCC(n2nc(Cc3ccc(Cl)cc3)c3ccccc3c2=O)CC1 (stereo not drawn) | µM | 16
O=c1c2ccccc2c(Cc2ccc(Cl)cc2)nn1C1CCCNCC1 (stereo not drawn) | µM | 11.8

----------
Biological target: UniProtKB P08183
Experiment: TP_TRANSPORTER: inhibition of Digoxin transepithelial transport (basal to apical) (Digoxin: 0.025 uM) in MDR1-expressing LLC-PK1 cells
Format: functional, cell-based
Each entry below carries its reported IC50.

compound | reading_unit | IC50
CN1CCCC(n2nc(Cc3ccc(Cl)cc3)c3ccccc3c2=O)CC1 (stereo not drawn) [AZELASTINE] | µM | 30
CCCCc1oc2ccccc2c1C(=O)c1cc(I)c(OCCNCC)c(I)c1 [DESETHYLAMIODARONE] | µM | 25.2
O=c1c2ccccc2c(Cc2ccc(Cl)cc2)nn1C1CCCNCC1 (stereo not drawn) [DESMETHYLAZELASTINE] | µM | 41.8
